Attribute: EC50
Test system: Human immunodeficiency virus 1
procedure-details: Antiviral activity against HIV1 JRCSF infected in human PBMC assessed as inhibition of viral p24 antigen production after 7 to 10 days by ELISA
Format: functional
condition-summary: Human immunodeficiency virus 1, JRCSF ISOLATE

The cases that follow already have their EC50 on record.
CCCN(CCC)CCCCN(C)Cc1ccc(CN(Cc2ncc[nH]2)Cc2nccn2C)cc1.O=C(O)C(O)C(O)C(=O)O; > 0.2 µM
c1cc(CN2CCCNCCNCCCNCC2)ccc1CN1CCCNCCNCCCNCC1 [PLERIXAFOR]; > 0.2 µM

Please examine the following record next.
Quick one: EC50 of NCCCCN(Cc1nc2ccccc2[nH]1)[C@H]1CCCc2cccnc21 [MAVORIXAFOR] ?
> 0.2 µM
